target-under-test: T1, GST-β3cyto (GST fusion protein of the integrin β3 cytoplasmic domain) (UniProt O54890)
T1 sequence: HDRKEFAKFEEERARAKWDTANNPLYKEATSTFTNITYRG
experimental-protocol: phage colonies recovered from β3-GST-coated wells divided by those from GST wells
reported-property: β3/GST Ratio
Numbers only.

Example cases with answers are listed next.
SDNRYIGSW [phage displaying … (SEQ ID NO:97)] = 3.3
CARLEVLLPC [phage displaying … (SEQ ID NO:94)] = 2.8
CEQRQTQEGC [phage displaying … (SEQ ID NO:93)] = 4.3
SDWYYPWSW [phage displaying … (SEQ ID NO:100), selected on β3] = 2.1
CFQNRC [phage displaying CFQNRC (SEQ ID NO:102)] = 3.1
KVSWYLDNG [phage displaying … (SEQ ID NO:99)] = 2.1
YDWWYPWSW [phage displaying … (SEQ ID NO:95)] = 5.6

Next:
GLDTYRGSP [phage displaying … (SEQ ID NO:96)] has a reported β3/GST Ratio of 4.1
